Tested on: HepG2-A16-CD81EGFP cells
Stated Conditions: HepG2, 1 µM compound treatment (10 mM stocks), replicate 2, normalized, average of 2 wells
Here, each record is paired with measured HepG2 1uM growth rep2 data.
Unit % implied. Number only.

CCOc1ccccc1NC(=O)Cn1c(-c2ccc(Cl)cc2)noc1=O
91

In plain terms, COc1cc2ccccc2cc1C(=O)N1CCCC(C(F)(F)F)C1 (stereo not shown) has a documented HepG2 1uM growth rep2 of 90

In plain terms, `CCOc1cccc(CNCCc2c(C)[nH]c3ccc(OC(F)(F)F)cc23)c1O.O=C(O)C(=O)O` has a documented HepG2 1uM growth rep2 of 92

In plain terms, CCCC(C)C(=O)Nc1ncc(S(=O)(=O)c2ccc([N+](=O)[O-])cc2)s1 (stereo not shown) has a documented HepG2 1uM growth rep2 of 92

* * *

Protocol Summary: in vitro
Stated Conditions: human, hepg2 cells
Here, each record is paired with measured CC50 at 48 h data.
Unit µM implied. Number only.

Below: 5 compounds and their reported CC50 at 48 h.
COc1cc(NC(=O)Cn2c(N(C)Cc3ccccc3)nc(C)cc2=O)cc(OC)c1
43.2
c1ccc(Nc2nc(NCc3ccco3)c3ccccc3n2)cc1
43.2
CCc1nnc(NC(=O)c2cc(Cl)ccn2)s1
43.2
Cc1ccccc1Cn1c(CN2CCC(C(=O)NCCN(C)C)CC2)cc2ccccc21
43.2
COc1ccc(/C=N/Nc2nc(Nc3ccccc3)nc(N3CCCC3)n2)cc1[N+](=O)[O-]
27.3

In plain terms, `CCCCN(C)CCCNC(=O)Cn1ncc2c3ccccc3n(Cc3cc(C)ccc3C)c2c1=O` has a documented CC50 at 48 h of 34.3

* * *

Tested on: P. berghei-ANKA-GFP-LucCON liver stage parasites in HepG2-A16-CD81EGFP cells
Protocol Summary: P. berghei liver stage Pb-Luc assay, Method 1 (UCSD, 1536-well)
Format: cell-based, Plasmodium berghei
Stated Conditions: Plasmodium berghei, 48 h, nominal 1 uM (10 mM stock); […] for 15 mM, 1.2 uM for 12 mM, 2 uM for 20 mM stock; average of 2 wells, 1536-well plate; repeat 3; read-out: Pb-Luc signal, 1 uM, repeat 3
Property Name: activity at 1 µM (%)
Unit % implied. Number only.

Cc1ccc(C)c(Cn2c(=O)n(CCCCC(=O)NCc3ccc4c(c3)OCO4)c(=O)c3ccccc32)c1 [NCGC00106276-01]
109
CCN1CCN(Cc2c(O)ccc3c(=O)c(Oc4ccccc4C(C)C)c(C(F)(F)F)oc23)CC1 [NCGC00100599-01]
135
CCc1ccc(C2Sc3ccccc3N=C3C2=C(O)c2ccccc23)cc1 (centres unmarked) [NCGC00108831-01]
12.7

In plain terms, Cc1nn2c(c1-c1ccccc1Oc1ccccc1)N(Cc1ccccc1O)CCC2 [NCGC00420455-01] has a documented activity at 1 µM of 78.3

In plain terms, Cc1cc(C)cc(C(=O)Nc2ccc3c(N4CCCC4)ncnc3c2)c1 [NCGC00425487-01] has a documented activity at 1 µM of 77.5

* * *

Tested on: P. berghei-ANKA-GFP-LucCON liver stage parasites in HepG2-A16-CD81EGFP cells
Protocol Summary: P. berghei liver stage Pb-Luc assay, Method 1 (UCSD, 1536-well)
Type: cell-based, Plasmodium berghei
Stated Conditions: Plasmodium berghei, 48 h, 1 uM (compounds provided at 10 mM); average of 2 wells on a 1536 well plate; column 11; read-out: Pb-Luc (P. berghei liver stage), % of control, lower concentration, first repeat
Here, each record is paired with measured activity at 1 µM data.
Unit % implied. Number only.

Below: 2 compounds and their reported activity at 1 µM.
CCOC(=O)c1c(C)oc2c1C(=O)c1ccccc1C2=O [MLS000684830-01]
95
COc1ccc(Cc2nnc(NC(=O)c3ccc(OC)cc3OC)s2)cc1 [MLS001211969-01]
125

Pending compound:
In plain terms, COc1cccc(CNCC(O)(c2ccc(Cl)cc2)c2ccc(Cl)cc2)c1 [MLS000325699-01] has a documented activity at 1 µM of 124
